# Tested on: 786-0 renal
# Measurement Description: NCI-60 one-dose screen, 48 h
# Condition Parameters: 10 µM unless noted
Compounds without any hit were thinned out: in the full panel of roughly 83,000, 20% have a hit. The source made the active and inactive calls. The calls were made as follows: active = growth percent below 10; inactive = the rest.
Outcome codes: active, inactive

Compound	Measured On	Category Label
Cc1cn(C2CC(N=[N+]=[N-])C(COP(=O)(O)OP(=O)(O)OP(=O)(O)O)O2)c(=O)[nH]c1=O (configuration not stated)	786-0 renal	inactive
COc1cc(/C=C/C(=O)c2ccc(Oc3ncnc4ccccc34)cc2)cc(OC)c1OC	786-0 renal	inactive
COc1ccc(-c2nn(-c3ccc(NC(=O)Nc4ccc(Cl)c(C(F)(F)F)c4)cc3)cc2-c2ccncc2)cc1Cl	786-0 renal	active
O=C(Nc1ccc(Cl)c(Cl)c1)Nc1ccc(Cl)c([N+](=O)[O-])c1	786-0 renal	active
Cc1ccc(/C=C2/C(=O)Nc3cc(Cl)c(-c4csc(N)n4)cc32)cc1	786-0 renal	inactive
O=C(Nc1ccc(-n2cc(-c3ccncc3)c(-c3ccc(O)c(Cl)c3)n2)cc1)c1cc(Cl)cc(Cl)c1	786-0 renal	active
COc1ccc(/C=C/C(=O)c2ccc(Oc3ncnc4ccccc34)cc2)cc1OC	786-0 renal	inactive
